Origin of values: patent US12168673B2

- Tested on: human hepatocytes
- assayRemarks: Human hepatocyte stability
- appliedConditions: 15 mins
experimentalReadout: % Parent Remaining (%)

{"molecule": "COC(=O)[C@@H](C)N[P@@](=O)(OC[C@H]1OC(OC(=O)c2cccnc2)[C@H](O)[C@@H]1O)Oc1ccccc1 (single isomer, unassigned) [Compound 104]", "targetSystem": "human hepatocytes", "experimentalReadout": "% Parent Remaining", "reportedValue": 78}
{"molecule": "COC(=O)[C@@H](C)NP(=O)(OC[C@H]1OC(OC(=O)c2cccnc2)[C@H](O)[C@@H]1O)Oc1ccccc1 (some centres unmarked) [Compound 101]", "targetSystem": "human hepatocytes", "experimentalReadout": "% Parent Remaining", "reportedValue": 43}
{"molecule": "O=C(OC1O[C@H](CO)[C@@H](O)[C@H]1O)c1cccnc1 (some centres unmarked) [Compound 100]", "targetSystem": "human hepatocytes", "experimentalReadout": "% Parent Remaining", "reportedValue": 97}
{"molecule": "COC(=O)[C@@H](C)N[P@](=O)(OC[C@H]1OC(OC(=O)c2cccnc2)[C@H](O)[C@@H]1O)Oc1ccccc1 (single isomer, unassigned) [Compound 103]", "targetSystem": "human hepatocytes", "experimentalReadout": "% Parent Remaining", "reportedValue": 63}
{"molecule": "C[C@]12CC[C@H]3[C@@H](CCC4=CC(=O)CC[C@@]43C)[C@@H]1CC[C@@H]2O [Testosterone, reference compound]", "targetSystem": "human hepatocytes", "experimentalReadout": "% Parent Remaining", "reportedValue": 28}

====

Each entry below lists one item and its recorded efflux ratio value.
- assayRemarks: Caco-2 permeability assay
- appliedConditions: human
experimentalReadout: efflux ratio

{"compound": "NC(=O)N1c2ccccc2C=Cc2ccccc21 [Carbamazepine, reference compound]", "experimentalReadout": "efflux ratio", "reportedValue": 1.1}
{"compound": "COC(=O)[C@@H](C)NP(=O)(OC[C@H]1OC(OC(=O)c2cccnc2)[C@H](O)[C@@H]1O)Oc1ccccc1 (some centres unmarked)", "experimentalReadout": "efflux ratio", "reportedValue": 39}
{"compound": "O=C(OC1O[C@H](CO)[C@@H](O)[C@H]1O)c1cccnc1 (some centres unmarked)", "experimentalReadout": "efflux ratio", "reportedValue": 1.2}
{"compound": "O=C(OC[C@H]1OC(O)[C@H](O)[C@@H]1O)c1ccccn1 (some centres unmarked)", "experimentalReadout": "efflux ratio", "reportedValue": 1}
{"compound": "O=c1[nH]c2ccccc2n1CCCN1CCC(n2c(=O)[nH]c3cc(Cl)ccc32)CC1 [Domperidone, reference compound]", "experimentalReadout": "efflux ratio", "reportedValue": 5.2}

====

Each entry below lists one item and its recorded Papp B→A value.
- assayRemarks: Caco-2 permeability assay
- appliedConditions: human
- Text: The endpoint measured is the intestinal permeability expressed as apparent permeability—Papp value. All permeability values are represented as ×10^−6 cm/sec.
experimentalReadout: Papp B→A (×10⁻⁶ cm/s)

{"compound": "COC(=O)[C@@H](C)NP(=O)(OC[C@H]1OC(OC(=O)c2cccnc2)[C@H](O)[C@@H]1O)Oc1ccccc1 (some centres unmarked)", "reportedValue": 6.1}
{"compound": "O=C(OC1O[C@H](CO)[C@@H](O)[C@H]1O)c1cccnc1 (some centres unmarked)", "reportedValue": 0.6}
{"compound": "O=C(OC[C@H]1OC(O)[C@H](O)[C@@H]1O)c1ccccn1 (some centres unmarked)", "reportedValue": 0.8}
{"compound": "O=c1[nH]c2ccccc2n1CCCN1CCC(n2c(=O)[nH]c3cc(Cl)ccc32)CC1 [Domperidone, reference compound]", "reportedValue": 20.3}
{"compound": "NC(=O)N1c2ccccc2C=Cc2ccccc21 [Carbamazepine, reference compound]", "reportedValue": 23.4}
